Conditions: in toluene, 313.15 K
readout: solubility (mole fraction)
Reply: number alone, nothing else.

Form field: reported solubility (mole fraction) of N#CCc1ccccc1[N+](=O)[O-]
0.153

====

Settings: in n-propanol, 278.15 K
readout: solubility (mole fraction)
Reply: number alone, nothing else.

Form field: reported solubility (mole fraction) of N#CCc1ccccc1[N+](=O)[O-]
0.00412

====

Conditions: in ethyl acetate, 318.15 K
readout: solubility (mole fraction)
Reply: number alone, nothing else.

Form field: reported solubility (mole fraction) of N#CCc1ccccc1[N+](=O)[O-]
0.313

====

Conditions: in isobutanol, 283.15 K
readout: solubility (mole fraction)
Reply: number alone, nothing else.

Form field: reported solubility (mole fraction) of N#CCc1ccccc1[N+](=O)[O-]
0.00416

====

Conditions: in ethanol, 318.15 K
readout: solubility (mole fraction)

Form field: reported solubility (mole fraction) of N#CCc1ccccc1[N+](=O)[O-]
0.0383

====

Settings: in n-butanol, 298.15 K
readout: solubility (mole fraction)
Reply: number alone, nothing else.

Form field: reported solubility (mole fraction) of N#CCc1ccccc1[N+](=O)[O-]
0.00969

====

Details: in 2-butanone, 303.15 K
readout: solubility (mole fraction)
Reply: number alone, nothing else.

Form field: reported solubility (mole fraction) of N#CCc1ccccc1[N+](=O)[O-]
0.235

====

Conditions: in toluene, 308.15 K
readout: solubility (mole fraction)

Form field: reported solubility (mole fraction) of N#CCc1ccccc1[N+](=O)[O-]
0.123

====

Details: in ethyl acetate, 328.15 K
readout: solubility (mole fraction)
Reply: number alone, nothing else.

Form field: reported solubility (mole fraction) of N#CCc1ccccc1[N+](=O)[O-]
0.407

====

Conditions: in acetic acid, 298.15 K
readout: solubility (mole fraction)
Reply: number alone, nothing else.

Form field: reported solubility (mole fraction) of N#CCc1ccccc1[N+](=O)[O-]
0.0574

====

Conditions: in ethylbenzene, 318.15 K
readout: solubility (mole fraction)
Reply: number alone, nothing else.

Form field: reported solubility (mole fraction) of N#CCc1ccccc1[N+](=O)[O-]
0.126

====

Settings: in 2-butanone, 278.15 K
readout: solubility (mole fraction)
Reply: number alone, nothing else.

Form field: reported solubility (mole fraction) of N#CCc1ccccc1[N+](=O)[O-]
0.108

====

Conditions: in 2-butanone, 308.15 K
readout: solubility (mole fraction)
Reply: number alone, nothing else.

Form field: reported solubility (mole fraction) of N#CCc1ccccc1[N+](=O)[O-]
0.269

====

Settings: in 1,4-dioxane, 328.15 K
readout: solubility (mole fraction)
Reply: number alone, nothing else.

Form field: reported solubility (mole fraction) of N#CCc1ccccc1[N+](=O)[O-]
0.414

====

Conditions: in 2-butanone, 333.15 K
readout: solubility (mole fraction)
Reply: number alone, nothing else.

Form field: reported solubility (mole fraction) of N#CCc1ccccc1[N+](=O)[O-]
0.543

====

Details: in toluene, 288.15 K
readout: solubility (mole fraction)

Form field: reported solubility (mole fraction) of N#CCc1ccccc1[N+](=O)[O-]
0.0471

====

Conditions: in n-propanol, 313.15 K
readout: solubility (mole fraction)
Reply: number alone, nothing else.

Form field: reported solubility (mole fraction) of N#CCc1ccccc1[N+](=O)[O-]
0.0254

====

Conditions: in 2-butanone, 283.15 K
readout: solubility (mole fraction)
Reply: number alone, nothing else.

Form field: reported solubility (mole fraction) of N#CCc1ccccc1[N+](=O)[O-]
0.128
